- tgt: human GLP-1 receptor (human, UniProt P43220 24-463)
- assay.summary: cell-based or functional assay
Square brackets hold non-standard residues; d marks the D form. Ends that are not written are not given here. Orn = NCCC[C@H](N)C(=O)O
What hGLP-1 R EC50 (cAMP) was measured for each of the following?
Respond numerically; units are nM and should not be typed.

Challenge: Bench note: what hGLP-1 R EC50 (cAMP) did HGEGTFTSDLSKQLEEEAVRLFIEWLKNYGXLDF (1Nal (1-naphthylalanine) at position 3 of the Gastrin6 moiety; C-terminal amide) [[Leu14]Exendin-4(1-28)-[1Nal3,Leu4]Gastrin6] show?
Response given: 0.04

Challenge: Bench note: what hGLP-1 R EC50 (cAMP) did HGEGTFTSELSKYLEEEAVRLFIEFLK[Peg3][Orn]WLDF-NH2 [[Glu9,Leu14,Phe25,Tyr13]Exendin-4(1-27)-Peg3-Orn-[Leu2]Gastrin4] show?
Response given: 0.041

Challenge: Bench note: what hGLP-1 R EC50 (cAMP) did HGEGTFTSDLSRYLEEEAVRLFIKFLR[Peg3]YGWLDF-NH2 [[Arg12,27,Leu14,Lys24,Phe25,Tyr13]Exendin-4(1-27)-Peg3-[Leu4]Gastrin6] show?
Response given: 0.13

Challenge: Bench note: what hGLP-1 R EC50 (cAMP) did HGEGTFTSDLSRYLEKEAVRLFIEFLR[Peg3]YGWLDF-NH2 [[Arg12,27,Leu14,Lys16,Phe25,Tyr13]Exendin-4(1-27)-Peg3-[Leu4]Gastrin6] show?
Response given: 0.17

Challenge: Bench note: what hGLP-1 R EC50 (cAMP) did HGEGTFTSELSKYLEEEAVRLFIEFLKWLDF-NH2 [[Glu9,Leu14,Phe25,Tyr13]Exendin-4(1-27)-[Leu2]Gastrin4] show?
Response given: 1.2

Challenge: Bench note: what hGLP-1 R EC50 (cAMP) did HGEGTFTSDLSKYMEEEAVRLFIEFLK[Peg3][Peg3]YGWLDF-NH2 [[Tyr13,Phe25]Exendin-4(1-27)-Peg3-Peg3-[Leu4]Gastrin6] show?
Response given: 0.035
